# TARGET_ENTITY: SIK2 (Homo sapiens (Human), UniProt Q9H0K1)
# Sequence (Q9H0K1 whole entry, species assumed): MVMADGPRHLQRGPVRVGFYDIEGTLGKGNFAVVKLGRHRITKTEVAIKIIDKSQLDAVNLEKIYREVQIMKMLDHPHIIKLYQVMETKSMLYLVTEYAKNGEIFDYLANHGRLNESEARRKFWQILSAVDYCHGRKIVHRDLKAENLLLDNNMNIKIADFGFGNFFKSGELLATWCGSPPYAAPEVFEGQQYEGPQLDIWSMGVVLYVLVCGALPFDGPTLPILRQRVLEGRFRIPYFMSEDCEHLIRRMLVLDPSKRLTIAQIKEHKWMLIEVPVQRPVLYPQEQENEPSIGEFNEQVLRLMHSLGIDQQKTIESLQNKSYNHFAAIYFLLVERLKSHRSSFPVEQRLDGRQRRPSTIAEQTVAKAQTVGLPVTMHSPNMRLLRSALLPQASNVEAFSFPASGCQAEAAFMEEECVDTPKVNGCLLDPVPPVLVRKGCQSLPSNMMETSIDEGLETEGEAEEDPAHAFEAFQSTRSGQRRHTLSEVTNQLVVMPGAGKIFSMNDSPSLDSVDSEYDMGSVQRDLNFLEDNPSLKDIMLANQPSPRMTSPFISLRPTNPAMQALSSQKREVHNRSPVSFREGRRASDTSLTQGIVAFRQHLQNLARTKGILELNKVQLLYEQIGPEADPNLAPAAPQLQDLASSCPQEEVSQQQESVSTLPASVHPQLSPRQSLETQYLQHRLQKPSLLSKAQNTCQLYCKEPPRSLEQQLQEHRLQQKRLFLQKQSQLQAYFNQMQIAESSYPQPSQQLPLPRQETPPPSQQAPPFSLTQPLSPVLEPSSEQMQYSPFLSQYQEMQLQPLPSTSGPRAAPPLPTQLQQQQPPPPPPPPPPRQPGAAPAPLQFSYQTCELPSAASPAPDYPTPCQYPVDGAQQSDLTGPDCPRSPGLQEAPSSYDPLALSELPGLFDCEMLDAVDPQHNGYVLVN
# ASSAY_PROCEDURE: SIK2 Enzymatic Assay Version 2 (High ATP)
# Format: biochemical
# EXPERIMENTAL_SETUP: 3 mM ATP and 200 μM HDAC5tide final, ADP-Glo Max luminescence
READOUT_LABEL: IC50 (nM)
Report as a plain number; the unit nM is understood.

// fetch SIK2 (Homo sapiens (Human), UniProt Q9H0K1) IC50 for Cc1cc(Nc2cc3cc(-c4c(OCC5(F)CCNC5)cnn4C(F)F)ccn3n2)nc(C)n1 (racemic) [Example 101]
7.2

Same question, Cc1onc(OC2CN(C)C2)c1-c1ccn2nc(NC(=O)C3CC3)cc2c1 [Example 494] this time
424

Another compound to check: CC(C)CN1CC[C@@H]1COc1cnn(C)c1-c1ccn2nc(NC(=O)C3CC3)cc2c1 [Example 244]
6.3

What do you get for Cc1cc(Nc2cc3cc(-c4c(CO[C@@H]5CN(C)C[C@@H]5C)cnn4C)ccn3n2)nc(C)n1 (stereo in doubt) [Example 369] ?
2

Moving on to Cc1onc(O[C@@H]2CCNC[C@@H]2F)c1-c1ccn2nc(NC(=O)C3CC3)cc2c1 (racemic) [Example 211]
32.5

Param item: Cc1onc(OC2CCN(C)CC2)c1-c1ccn2nc(NC(=O)C3CC3)cc2c1 [Example 493]
236

Also need CN1CC2(CC2)C1COc1cnn(C)c1-c1ccn2nc(NC(=O)C3CC3)cc2c1 (racemic) [Example 51] , thanks.
47

# repeat for COC1(COc2noc(C)c2-c2ccn3nc(NC(=O)C4CC4)cc3c2)CCNCC1 [Example 206]
35

# repeat for Cc1cc(Nc2cc3cc(-c4c(O[C@@H]5CNC[C@@H]5F)noc4C)ccn3n2)nnc1C [Example 93]
4.7

Queued: CN1CC[C@H](Oc2cnn(C)c2-c2ccn3nc(Nc4cccnn4)cc3c2)C1 [Example 449]
89.5

# iterate: CN1CC[C@@H]1COc1cnn(C)c1-c1ccn2nc(NC(=O)[C@H]3C[C@H]3c3ccccc3)cc2c1 (single isomer, unassigned) [Example 159]
24.2

Another compound to look at: COc1cc(Nc2cc3cc(-c4c(OC[C@H]5CCN5C)cnn4C)ccn3n2)ncn1 [Example 127]
11

Also need CCN1CC[C@@H]1COc1cnn(C(F)F)c1-c1ccn2nc(Nc3cc(C)nc(C)n3)cc2c1 [Example 479] , thanks.
1.1

Now give it for Cc1onc(OC[C@H](c2ccccn2)N(C)C)c1-c1ccn2nc(NC(=O)C3CC3)cc2c1 [Example 325] too.
63.2

Another compound to look at: CN1CC2(CCOCC2)[C@@H]1COc1cnn(C)c1-c1ccn2nc(NC(=O)C3CC3)cc2c1 (single isomer, unassigned) [Example 58]
57.8

Then what about the compound CN1CC[C@@H]1COc1cnn(C)c1-c1ccn2nc(Nc3cnc(OC(F)F)cn3)cc2c1 [Example 155] ?
6.6

Try this compound too: Cn1ncc(OC[C@H]2CCN2CC(C)(C)O)c1-c1ccn2nc(NC(=O)C3CC3)cc2c1 [Example 245]
13.7

What do you have for CCc1cc(Nc2cc3cc(-c4c(OC[C@@H]5CCN5CC)cnn4C)ccn3n2)nc(C)n1 [Example 169] ?
38.7

Same lookup for Cc1onc(O[C@@H]2CN[C@@H]3CCCO[C@@H]32)c1-c1ccn2nc(NC(=O)C3CC3)cc2c1 [Example 227] , please.
34.9

Another: Cn1ncc(O[C@H]2CNC[C@H]2F)c1-c1ccn2nc(NC(=O)C3CC3)cc2c1 [Example 504]
466

====

# TARGET_ENTITY: SIK2 (Homo sapiens (Human))
# ASSAY_PROCEDURE: SIK2 Enzymatic Assay Version 2 (High ATP)
# Format: biochemical
# EXPERIMENTAL_SETUP: 3 mM ATP and 200 μM HDAC5tide final, ADP-Glo Max luminescence
pIC50: −log10 of the molar value.
Label Criterion met when pIC50 is at or above 8; otherwise label Criterion not met.

Say whether CCN1CC[C@@H]1COc1cnn(C)c1-c1ccn2nc(Nc3cncc(C)n3)cc2c1 [Example 20] shows pIC50 of 8 or more.
Criterion met

Repeat for the following molecule: Cc1onc(OC[C@H](c2ccccc2F)N(C)C)c1-c1ccn2nc(NC(=O)C3CC3)cc2c1 [Example 324]
Criterion not met

C[C@@H]1CNC[C@@H]1Oc1cnn(C)c1-c1ccn2nc(NC(=O)C3CC3)cc2c1 (single isomer, unassigned) [Example 238] , same question.
Criterion not met

// repeat for Cn1ncc(OC[C@H]2CCN2)c1-c1ccn2nc(Nc3ccc(C4CC4)nn3)cc2c1 [Example 394] and report
Criterion not met

Please do the same for CN1CC[C@@H]1COc1cnn(C)c1-c1ccn2nc(NC(=O)[C@H]3C[C@@H]3C(F)(F)F)cc2c1 (racemic) [Example 70] as well.
Criterion not met

For Cc1nc(Nc2cc3cc(-c4c(OC[C@H]5CCN5C)cnn4C)ccn3n2)cc(C(F)(F)F)n1 [Example 122] then?
Criterion met

And the next one, CN1CC[C@H](Oc2cnn(C)c2-c2ccn3nc(Nc4ccc(C5CC5)nn4)cc3c2)C1 [Example 462] ?
Criterion not met

====

# TARGET_ENTITY: SIK2 (Homo sapiens (Human))
# ASSAY_PROCEDURE: SIK2 Enzymatic Assay Version 2 (High ATP)
# Format: biochemical
# EXPERIMENTAL_SETUP: 3 mM ATP and 200 μM HDAC5tide final, ADP-Glo Max luminescence
READOUT_LABEL: pIC50
A value of pIC50 is the negative decimal logarithm of a concentration given in moles per litre.

Returns the measured pIC50 for the input molecule. Input: Cn1ncc(O[C@H]2C[C@H]3COC[C@@H](C2)N3)c1-c1ccn2nc(NC(=O)C3CC3)cc2c1 [Example 313]
7.53

Cc1cc(Nc2cc3cc(-c4c(OC[C@H]5CCN5C)cnn4C)ccn3n2)nc(C(F)(F)F)n1 [Example 63] , same question.
8.96

And then CN1CC[C@H](Oc2cnn(C)c2-c2ccn3nc(Nc4ccncn4)cc3c2)C1 [Example 455] , what is it?
6.86

And the next one, Cc1cc(Nc2cc3cc(-c4c(OC[C@@H]5CCN5C)cnn4C)ccn3n2)nc(C2CC2)n1 [Example 134] ?
8.55

Input Cc1cc(Nc2cc3cc(-c4c(OC[C@H]5C[C@H](C)CN5C)cnn4C)ccn3n2)nc(C)n1 [Example 305]
7.79

Cool, now CN1CC[C@@H]1COc1cnn(C)c1-c1ccn2nc(Nc3ccc(=O)n(C)n3)cc2c1 [Example 143]
8.62

And the next one, Cc1onc(O[C@H]2C[C@H]3C[C@@H]2CN3)c1-c1ccn2nc(NC(=O)C3CC3)cc2c1 (racemic) [Example 212] ?
7.33

====

# TARGET_ENTITY: SIK2 (Homo sapiens (Human))
# ASSAY_PROCEDURE: SIK2 Enzymatic Assay Version 2 (High ATP)
# Format: biochemical
# EXPERIMENTAL_SETUP: 3 mM ATP and 200 μM HDAC5tide final, ADP-Glo Max luminescence
# Experimental: All steps were performed at room temperature. Compounds were pre-plated onto an assay plate using an Echo acoustic dispenser (Labcyte, […] or […]) at 80 nL per well. […] The plate was then read on the Pherastar (BMG Labtech) using a luminescence read. […]
READOUT_LABEL: IC50 (µM)
# unit: µM | format: bare number

GET /values?readout=IC50&item= `CN1CC[C@@H]1COc1cnn(C)c1-c1ccn2nc(Nc3ncc(F)cn3)cc2c1`
0.0975

Try this molecule next: `Cn1ncc(CO[C@@H]2CCNC2)c1-c1ccn2nc(NC(=O)C3CC3)cc2c1`
0.0344

Can you handle `Cc1cc(Nc2cc3cc(-c4c(OC[C@H]5CCN5)cnn4C)ccn3n2)nnc1C` next?
0.0322

Thanks! And `CN1CC[C@H](Oc2cnn(C)c2-c2ccn3nc(Nc4cc5c(nn4)CCC5)cc3c2)C1` ?
0.0332

====

# TARGET_ENTITY: SIK2 (Homo sapiens (Human), UniProt Q9H0K1)
# ASSAY_PROCEDURE: SIK2 Enzymatic Assay Version 2 (High ATP)
# Format: biochemical
# EXPERIMENTAL_SETUP: 3 mM ATP and 200 μM HDAC5tide final, ADP-Glo Max luminescence
Give pIC50 for every item shown.
pIC50 is defined as minus the log10 of a concentration measured in mol/L.

GET /values?readout=pIC50&item= `Cc1cc(Nc2cc3cc(-c4c(O[C@H]5CCN(C)C5)cnn4C)ccn3n2)nc(C)n1`
7.53

What do we get for Cc1cc(Nc2cc3cc(-c4c(OC[C@@H]5CCO[C@@H]5C)cnn4C)ccn3n2)nc(C)n1 (relative stereo) ?
7.61

Try this compound next: `Cn1ncc(OC[C@H](N)c2ccccc2)c1-c1ccn2nc(NC(=O)C3CC3)cc2c1`
7.97
